# reported IC50; entries follow
System: WI-38
Assay: Antiproliferative activity against human WI-38 cells measured after 48 hrs by MTT assay
Type: functional, cell-based
Settings: WI-38, 48 h
metric: IC50 (µg/mL)

| molecule | censor-symbol | readout-value |
| --- | --- | --- |
| O=C1c2cccc(O)c2C(=O)c2c(O)cc(C(=O)N3CCN(C(=S)SCCCOc4ccccc4)CC3)cc21 | > | 100 |
| O=C1c2cccc(O)c2C(=O)c2c(O)cc(C(=O)N3CCN(C(=S)SCc4ccc(C(F)(F)F)cc4)CC3)cc21 | > | 100 |
| O=C1c2cccc(O)c2C(=O)c2c(O)cc(C(=O)N3CCN(C(=S)SCc4ccc(Cl)cc4)CC3)cc21 | = | 72.5 |
| COc1cccc2c1C(=O)c1c(O)c3c(c(O)c1C2=O)C[C@@](O)(C(=O)CO)C[C@@H]3O[C@H]1C[C@H](N)[C@H](O)[C@H](C)O1 [DOXORUBICIN] | = | 0.079 |
| O=C1c2cccc(O)c2C(=O)c2c(O)cc(C(=O)N3CCN(C(=S)SCc4ccc(F)cc4)CC3)cc21 | > | 100 |
| COC(=O)CSC(=S)N1CCN(C(=O)c2cc(O)c3c(c2)C(=O)c2cccc(O)c2C3=O)CC1 | = | 67 |
| O=C(CSC(=S)N1CCN(C(=O)c2cc(O)c3c(c2)C(=O)c2cccc(O)c2C3=O)CC1)OCc1ccccc1 | > | 100 |
